- Tested on: EBC-1
- method summary: Cell viability / antiproliferative assay (WST-8), EBC-1
- Assay type: cell-based, human
- stated conditions: Homo sapiens; EBC-1 cells, 72 hours, WST-8; Table 1; read-out: EBC-1 IC50

molecule	test target	IC50
Cn1cc(-c2cnc3c(nnn3C[C@@H]3CN(c4ncc(-c5ccc(CN6CCN(c7ccc(NC8CCC(=O)NC8=O)cc7F)CC6)cc5)cn4)CCO3)n2)cn1 (stereo partly shown) [ICT-0001403]	EBC-1	< 100 nM

Where these numbers come from: patent EP4624466A1
